assay.comment: acute toxicity study
experimental.parameters: in vivo; intravenous; mice and rats
observable: LD50 (mg/kg)
Kindly provide the numeric value in mg/kg only, without the unit symbol.

Looking up O=S(=O)(O)c1cc(O)ccc1O [calcium dobesilate, calcium 2,5-dihydroxybenzenesulfonate] , I see its LD50 listed as 750
